Origin of measurements: paper PMC11275175

# system.tested: cannabinoid receptor type 1 (CB1) (Homo sapiens)
# Sequence (P21554 whole entry): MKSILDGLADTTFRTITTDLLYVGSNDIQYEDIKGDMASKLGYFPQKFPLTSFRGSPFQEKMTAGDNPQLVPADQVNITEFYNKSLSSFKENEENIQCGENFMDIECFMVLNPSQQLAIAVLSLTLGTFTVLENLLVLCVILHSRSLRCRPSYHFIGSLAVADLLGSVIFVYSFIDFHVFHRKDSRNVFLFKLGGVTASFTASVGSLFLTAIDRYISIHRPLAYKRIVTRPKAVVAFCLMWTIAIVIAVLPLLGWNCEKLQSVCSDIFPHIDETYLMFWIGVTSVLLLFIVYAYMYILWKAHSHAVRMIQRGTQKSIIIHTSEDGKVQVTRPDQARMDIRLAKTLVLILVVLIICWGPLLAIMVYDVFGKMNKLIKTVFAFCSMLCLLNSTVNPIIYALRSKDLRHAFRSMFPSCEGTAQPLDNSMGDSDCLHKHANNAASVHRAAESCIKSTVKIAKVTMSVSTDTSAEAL
# assay.text: cAMP Hunter CHO-K1 CNR1 Gi agonist assay (inhibition of forskolin-stimulated cAMP)
readout.type: EC50 (µM)
Kindly provide the numeric value in µM only, without the unit symbol.

Asked: Param request: EC50 | system cannabinoid receptor type 1 (CB1) (Homo sapiens) | item C=C(C)[C@@H]1CC[C@](C)(O)[C@H]2Oc3cc(CCCCC)cc(O)c3[C@@H]12 [S-CBE]
Given back: 3.72

* * *

# system.tested: CB1 receptor (Mus musculus, UniProt P47746)
# Sequence (P47746 whole entry): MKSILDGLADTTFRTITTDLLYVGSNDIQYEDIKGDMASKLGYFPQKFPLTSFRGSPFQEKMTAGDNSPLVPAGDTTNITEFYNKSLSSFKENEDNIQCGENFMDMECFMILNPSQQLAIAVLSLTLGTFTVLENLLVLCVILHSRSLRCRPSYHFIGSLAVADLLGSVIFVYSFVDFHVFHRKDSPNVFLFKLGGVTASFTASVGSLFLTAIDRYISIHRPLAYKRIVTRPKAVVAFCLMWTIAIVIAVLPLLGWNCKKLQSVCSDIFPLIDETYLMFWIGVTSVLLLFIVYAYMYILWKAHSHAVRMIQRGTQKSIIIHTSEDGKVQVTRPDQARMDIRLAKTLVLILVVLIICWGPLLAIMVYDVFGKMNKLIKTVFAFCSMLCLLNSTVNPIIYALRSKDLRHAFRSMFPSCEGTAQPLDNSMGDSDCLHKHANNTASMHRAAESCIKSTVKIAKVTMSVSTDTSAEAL
# assay.text: PathHunter β-arrestin CHO-K1 antagonist assay vs CP55940
readout.type: IC50 (nM)
Numeric answer only, unit nM assumed.

Asked: Report IC50, nothing else, for this compound: Cc1c(C(=O)NN2CCOCC2)nn(-c2ccc(Cl)cc2Cl)c1-c1ccc(I)cc1 [AM281]
Given back: 40
